The following compounds are shown together with reported %Inh values.
system: PRKG2; details: concentration: 1 μM, replicates: in singlicate; n = 1;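 further: KINOMEscan kinase panel screen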

| COMPOUND | %Inh / % |
| --- | --- |
| Cn1ccc2ncnc(Oc3ccc(NC(=O)Nc4ccncc4)c(Cl)c3)c21 | 0 |
| O=C(Nc1cccc(-c2nn3ncccc3c2-c2ccnc(Nc3cccc(C(F)(F)F)c3)n2)c1)c1c(F)cccc1F | 0 |
| NS(=O)(=O)CCc1cccc(Nc2nccc(-c3c(-c4cccc(NC(=O)c5c(F)cccc5F)c4)nn4ccccc34)n2)c1 | 0 |

----------
The following compounds are shown together with reported %Inh values.
test system: RIPK4; conditions: concentration: 1 μM, replicates: in singlicate; n = 1

| COMPOUND | %Inh / % |
| --- | --- |
| c1ccc(-c2n[nH]cc2-c2ccnc3ccccc23)nc1 | 2 |
| C[C@@H](Oc1cc(-n2cnc3ccc(NC(=O)NC(C)(C)C)cc32)sc1C(N)=O)c1ccccc1Cl | 4 |
| COc1ccc(Nc2nccc(N3CCC(NC(=O)Nc4cccc(C(C)=O)c4)C3)n2)cc1 (stereo not drawn) | 0 |
| CC(=O)Nc1ccc(COc2ccc(Nc3ccnc4cc(-c5ccccn5)ccc34)cc2)cc1.Cl | 19 |
| COc1cc2ncn(-c3cc(OCc4sccc4Cl)c(C(N)=O)s3)c2cc1OC | 15 |
| CNc1ncnc2[nH]ncc12 | 22 |
| O=c1cc(N2CCOCC2)nc2n(Cc3cccc(C(F)(F)F)c3)ccn12 | 0 |
| Nc1nccc(-c2c(-c3ccc(F)cc3)ncn2C2CCN(CC(F)(F)F)CC2)n1 | 72 |
| O=C(NCCNc1ccnc(Nc2ccc(F)cc2)n1)c1cc2ccccc2s1 | 18 |

----------
The following molecules are shown together with reported %Inh values.
tested on: ABL2; conditions: concentration: 1 μM, replicates: in singlicate; n = 1
QUANTITY KIND: %Inh (%)

| MOLECULE | UNITS SYMBOL | VALUE OBSERVED |
| --- | --- | --- |
| Nc1nccc(-c2c(-c3ccc(F)cc3)ncn2C2CCN(CC(F)(F)F)CC2)n1 | % | 0 |
| Cc1ccc(NC(=O)c2ccnc(N3CCN(C)CC3)c2)cc1-c1ccc(C(=O)NCC2CC2)cc1 | % | 0 |
| C[C@@H](Oc1cc(-n2cnc3ccc(NC(=O)NC(C)(C)C)cc32)sc1C(N)=O)c1ccccc1Cl | % | 9 |
| c1ccc(-c2cc(-c3c[nH]nc3-c3ccccn3)ccn2)cc1 | % | 0 |
| Cc1nnc(-c2ccc3occ(-c4ccc(C(C)O)cc4)c3c2)o1 (stereo not drawn) | % | 8 |
| O=C(NOCC1CC1)c1ccc(F)c(F)c1Nc1ccc(I)cc1Cl | % | 0 |
| O=C(Nc1n[nH]c2cc(-c3cccc(F)c3)ccc12)C1CC1 | % | 8 |
| Fc1ccc(-c2ncn(CCCN3CCOCC3)c2-c2ccccn2)cc1 | % | 7 |
| Cn1ccc2ncnc(Oc3ccc(NC(=O)Nc4ccncc4)c(Cl)c3)c21 | % | 0 |

----------
The following molecules are shown together with reported %Inh values.
test system: ZAK; conditions: concentration: 1 μM, replicates: in singlicate; n = 1
QUANTITY KIND: %Inh (%)

| MOLECULE | VALUE OBSERVED |
| --- | --- |
| O=C(NCCNc1ccnc(Nc2ccc(F)cc2)n1)Nc1ccccc1F [GSK1379880] | 0 |
| Nc1nccc(-c2c(-c3ccc(F)cc3)ncn2C2CCN(CC(F)(F)F)CC2)n1 [SB-236560] | 0 |
| O=c1cc(N2CCOCC2)nc2n(Cc3cccc(Cl)c3Cl)c(C3CC3)nn12 [GSK2358994] | 12 |
| CCc1nc(-c2cccc(C)c2)c(-c2ccnc(NCc3ccccc3)c2)s1 | 11 |
| Cc1ccc(C(=O)NCC(N)=O)cc1-n1c(C)cc(OCc2ccc(F)cc2F)c(Br)c1=O | 24 |
| Cc1nnc(-c2ccc3occ(-c4ccc(C(C)O)cc4)c3c2)o1 (centres unmarked) | 46 |
| COc1cc2ncn(-c3cc(OCc4sccc4Cl)c(C(N)=O)s3)c2cc1OC [GSK448459] | 0 |
| Cc1ccc(NC(=O)c2ccnc(N3CCN(C)CC3)c2)cc1-c1ccc(C(=O)NCC2CC2)cc1 [GW775604] | 0 |
| Cl.Oc1cccc(Nc2ccnc3cc(-c4ccncc4)ccc23)c1 [GW494601] | 84 |
| Cc1cccc(-c2nc(Nc3ccc4ncsc4c3)c3ccccc3n2)n1 [GW867588] | 0 |
| Nc1nc(-c2ccc3c(N)n[nH]c3c2)cc(N2CCCC2)n1 [GSK2227430] | 0 |

----------
system: FER; conditions: concentration: 1 μM, replicates: in singlicate; n = 1
The following molecules are shown together with reported %Inh values.
QUANTITY KIND: %Inh (%)

| MOLECULE | VALUE OBSERVED |
| --- | --- |
| Cl.Oc1cccc(Nc2ccnc3cc(-c4ccncc4)ccc23)c1 [GW494601] | 23 |
| CN(C1=C(c2ccccc2)C(=O)NC1=O)c1ccccc1 [SB-334860] | 19 |
| N#Cc1c(N2CCOCC2)sc(-c2ccn[nH]2)c1-c1ccc(Cl)cc1 | 11 |
| CCCCCc1nc2c(N)ncnc2n1CCCCC [SKF-97255] | 13 |
| COc1ccc(COc2cc(-n3cnc4ccccc43)sc2C(N)=O)cc1 [GSK1024304] | 6 |
| Cc1cn2c(=O)cc(N3CCOCC3)nc2n1Cc1cccc(Cl)c1Cl [GSK2334006] | 33 |
| Fc1ccc(-c2ncn(CCCN3CCOCC3)c2-c2ccccn2)cc1 [SB-211742] | 0 |
| Cc1nnc(-c2ccc(C)c(-c3ccc(C(=O)Nc4ccc(NS(C)(=O)=O)cc4)cc3)c2)o1 [GW702865] | 4 |
| Cc1nnc(-c2ccc3occ(-c4ccc(C(C)O)cc4)c3c2)o1 (stereo not shown) | 0 |
| COc1ccc(CNC(=O)NC2CCN(c3ccnc(Nc4ccc(OC)cc4)n3)C2)cc1 (stereo not shown) [GSK1379727] | 8 |
| Fc1ccc(-c2nn3c(OCC(F)(F)F)cccc3c2-c2ccncc2)cc1 [GW514784] | 13 |
| COc1ccc(Nc2nccc(N3CCC(NC(=O)Nc4cc(C)ccc4C)C3)n2)cc1 (stereo not shown) [GSK1379741] | 0 |
| Cc1cccc(-c2nc(Nc3ccc4ncsc4c3)c3ccccc3n2)n1 [GW867588] | 0 |
| COc1ccc(S(=O)(=O)NC2CCN(c3cc(C)nc(Nc4cccc(C#N)c4)n3)CC2)cc1.O=C(O)C(F)(F)F [GSK1653539] | 23 |
| O=c1cc(N2CCOCC2)nc2n(Cc3cccc(F)c3)ccn12 [GSK2297430] | 24 |
| O=C1NC(=O)C(N2CCc3ccccc32)=C1c1cccc(Cl)c1 [SB-408010] | 0 |
| CC(C)(C)n1cnc2c(N)ncnc21 [SKF-97359] | 45 |
| O=C(NCCNc1ccnc(Nc2ccc(F)cc2)n1)Nc1ccccc1F [GSK1379880] | 11 |
| CN(C(=O)c1ccc(-c2cc(-c3c[nH]nc3-c3ccccn3)ccn2)cc1)C1CCOCC1 [GW810083] | 0 |

----------
tested on: BMX; settings: concentration: 1 μM, replicates: in singlicate; n = 1
Parameter threshold = 9%. Response is satisfied when %Inh meets or exceeds it, else not satisfied.

| MOLECULE | TARGET OF ASSAY | LABEL VALUE |
| --- | --- | --- |
| COc1cc2c(cc1OCCN1CCN(C)CC1)ncc1c3ccc(C#N)cc3[nH]c21 | BMX | not satisfied |
| CCc1nc(-c2cccc(C)c2)c(-c2ccnc(NCc3ccccc3)c2)s1 | BMX | not satisfied |
| Cc1cccc(Cn2ccn3c(=O)cc(N4CCOCC4)nc23)c1 [GSK2297542] | BMX | satisfied |
| NS(=O)(=O)c1cccc(-c2ccc3nccc(-c4cccc(S(N)(=O)=O)c4)c3c2)c1 [GW867253] | BMX | not satisfied |
| Cc1nnc(-c2ccc3ncc(-c4ccc(S(C)=O)cc4)n3c2)o1 (stereo not drawn) | BMX | not satisfied |
| O=C(NCCNc1ccnc(Nc2ccc(F)cc2)n1)c1cc2ccccc2s1 [GSK1379874] | BMX | not satisfied |
| COc1ccc(Nc2nccc(N3CCC(NC(=O)Nc4cccc(C(C)=O)c4)C3)n2)cc1 (stereo not drawn) [GSK1379731] | BMX | not satisfied |
| NS(=O)(=O)c1cccc(-c2ccc3ncc(N4CCOCC4)nc3c2)c1 [GSK1535721] | BMX | satisfied |
| C[C@@H](Oc1cc(-n2cnc3ccc(NC(=O)NC(C)(C)C)cc32)sc1C(N)=O)c1ccccc1Cl [GSK346294] | BMX | satisfied |
| O=C1Cc2cc(Nc3nc(NCc4cccc(S(=O)(=O)C(F)(F)F)c4)ncc3C(F)(F)F)ccc2N1 | BMX | not satisfied |
| Cc1ccc(NC(=O)c2ccnc(N3CCN(C)CC3)c2)cc1-c1ccc(C(=O)NCC2CC2)cc1 [GW775604] | BMX | not satisfied |
| CN1c2ccc(CNc3ccc(F)cc3)cc2-c2c(cnn2C)S1(=O)=O | BMX | not satisfied |
| O=C(NCCNc1ccnc(Nc2ccc(F)cc2)n1)Nc1ccccc1F [GSK1379880] | BMX | not satisfied |
| Cn1cc(-c2ccc3c(c2)CCN3C(=O)Cc2ccccc2Cl)c2c(N)ncnc21 [GSK2608885] | BMX | satisfied |
| CC(C)(C)n1cnc2c(N)ncnc21 [SKF-97359] | BMX | not satisfied |
| c1ccc(-c2n[nH]cc2-c2ccnc3ccccc23)nc1 [GW271431] | BMX | satisfied |
